This section presents IC50 values reported for human DGAT2 (hDGAT2) (Homo sapiens, UniProt Q96PD7) in the literature.
Output spec: scalar in nM, unitless text.

Just so you know, measured IC50 for O=C(NC1CCS(=O)(=O)C1)c1ccc2c(-c3cccc(C(F)(F)F)c3)cn(-c3ccc(F)cc3)c2c1 (racemic) came out at 18

Entry under test: CC(C)n1nc(-c2cccc(OC3CC3)c2)c2ncc(C(=O)NC3(C)CS(=O)(=O)C3)cc21 . Its IC50 was 0.9

IC50 reported for this molecule CC1(NC(=O)c2cnc3c(c2)c(C(C)(C)O)nn3-c2cc(OCC(F)F)ncc2F)CS(=O)(=O)C1 : 13

Given item C[C@]1(NC(=O)c2cnc3c(c2)c(-c2ccc(F)cc2)nn3-c2cccc(OC(F)F)c2)CCS(=O)(=O)C1 , the value recorded as its IC50 is 3.2

* * *

Below, IC50 values reported for human DGAT2 (hDGAT2) (Homo sapiens) across several publications.
Criterion: IC50 strictly under 0.3 µM. Met: 1.0. Not met: 0.0.

Determine if Cc1cc(Oc2ncc(Cl)cc2OCC(F)F)nn2cc(C(=O)NC3(C)CCS(=O)(=O)CC3)nc12 shows IC50 strictly lower than 0.3 µM.
1.0

Determine whether this molecule shows IC50 lower than 0.3 µM (ties excluded): CC(C)(C)NC(=O)N1CCc2c(-c3cccc(C(F)(F)F)c3)ccc(C(=O)NCCn3cncn3)c2C1
0.0

Is the reported IC50 for COc1cccc(-c2ccc(CNC(=O)c3cc(C(F)(F)F)n[nH]3)c3c2CCN(C(=O)NC(C)(C)C)C3)c1 strictly below 0.3 µM?
1.0

Quick check: does NC(=O)c1ccc(Cl)c(-c2nn(-c3ccc(F)cc3)c3cc(C(=O)NC4CCS(=O)(=O)C4)ccc23)c1 (single isomer, unassigned) have IC50 under 0.3 µM?
1.0

Given the entry CC1(NC(=O)c2cnc3c(c2)c(C(C)(C)O)nn3-c2cc(OC(F)(F)F)ccc2F)CS(=O)(=O)C1 , would its reported IC50 be below 0.3 µM?
1.0

Lab log: compare recorded IC50 with 0.3 µM; is it strictly lower for CC(C)(C)NC(=O)N1CCc2c(-c3cccc(OC(F)(F)F)c3)ccc(C(=O)NCc3cccc4ccnn34)c2C1 ?
1.0

Determine if CSCC[C@@H](CO)NC(=O)c1ccc2c(-c3ccccc3Cl)nn(-c3ccc(F)cc3)c2c1 shows IC50 strictly lower than 0.3 µM.
0.0

In plain terms, does CC1(NC(=O)c2cc3cc(Oc4ncc(F)cc4OCC(F)F)ccn3n2)CS(=O)(=O)C1 come in under 0.3 µM for IC50?
1.0

Identify whether the molecule CC1(NC(=O)c2nc3ccc(Oc4ncc(F)cc4OCC(F)(F)F)c(Cl)n3c2Cl)CCS(=O)(=O)CC1 records IC50 below 0.3 µM.
1.0

Given Cc1n[nH]c(C)c1C(C)NC(=O)c1ccc2c(-c3ccccc3Cl)nn(-c3ccc(F)cc3)c2c1 (racemic) , is recorded IC50 strictly lower than 0.3 µM?
1.0

Quick check: IC50 of CN1C(C)(C)C(NC(=O)c2cc3cc(Oc4ncccc4OCC(F)(F)F)ccn3n2)CS1(=O)=O (racemic) under 0.3 µM?
0.0

A record lists O=C(NC1CCS(=O)(=O)C1)c1ccc2c(-c3cccc(OC(F)F)c3)cn(-c3ncc(F)cn3)c2c1 (single isomer, unassigned; enantiomer a) . Is its IC50 below 0.3 µM?
1.0

* * *

Let's look at some pIC50 data for UniProtKB Q96PD7 that I collected from the literature.
pIC50 field: float, defined as -log10 of concentration (mol/L).

The recorded pIC50 for Cc1c(Oc2ncc(F)cc2OCC(F)(F)F)cc(F)c2nc(C(=O)NC3(C)CCS(=O)(=O)CC3)nn12 is 7.72

pIC50 measured on O=C(NC1CCS(=O)(=O)C1)c1ccc2c(-c3cccc(-n4cccn4)c3)cn(-c3ccc(F)cc3)c2c1 (racemic) = 7.82

Notebook: C[C@]1(NC(=O)c2ccc3c(c2)c(-c2ccc(F)cc2)cn3-c2ccc(F)cc2)CCS(=O)(=O)C1 , pIC50 read as 6.24

Value of pIC50 reported for the compound Cc1c(C(=O)NC2(C)CCS(=O)(=O)CC2)nc2ccc(Oc3ncc(F)cc3OCC(F)F)cn12 is 8.59

In plain terms, Cc1c(Oc2ncc(Cl)cc2OCC(C)(F)F)ccc2nc(C(=O)NC3(C)CCS(=O)(=O)CC3)c(F)n12 has a documented pIC50 of 7.43

The recorded pIC50 for entry CC(C)c1nn(-c2cccc(OC(F)F)c2)c2ncc(C(=O)NC3(C)CS(=O)(=O)C3)cc12 equals 8.03

The compound identified as CC1(NC(=O)c2ccc3c(-c4ccccc4Cl)cn(-c4ncc(F)cn4)c3c2)CCS(=O)(=O)C1 (single isomer, unassigned; enantiomer a) registered its pIC50 at 7.11

Given item Cc1c(Oc2ncc(Cl)cc2OCC(C)(F)F)ccc2nc(C(=O)NC3(C)CCS(=O)(=O)CC3)cn12 , the value recorded as its pIC50 is 8.04

The recorded pIC50 for entry CCOc1ccccc1Oc1ccc2nc(C(=O)N[C@H]3CCOC3)cn2c1 equals 5.20

Looking up Cn1nc(-c2cccc(OC(F)F)c2)c2ncc(C(=O)NC3(C)CS(=O)(=O)C3)cc21 , I see its pIC50 listed as 6.82

Consider CC(Cc1ccccn1)NC(=O)c1ccc2c(-c3ccccc3Cl)nn(-c3ccc(F)cc3)c2c1 (racemic) . Its measured pIC50 is 6.23

Measured pIC50 of O=C(NCCS(=O)(=O)Nc1ccccc1)c1ccc2c(-c3ccccc3Cl)nn(-c3ccc(F)cc3)c2c1 : 7.66

Looking up CC1(NC(=O)c2nc3ccc(Oc4ncc(Cl)cc4OCC(F)(F)F)cn3n2)CS(=O)(=O)C1 , I see its pIC50 listed as 6.82

According to the records, this compound COC(=O)c1cccc(-c2ccc(CNC(=O)[C@@H]3C[C@H]3c3ccccc3)c3c2CCN(C(=O)NC2(C)CCCC2)C3)c1 (relative stereo) displays pIC50 of 8.00

* * *

# pIC50 against human DGAT2 (hDGAT2) (Homo sapiens, UniProt Q96PD7), merged from multiple literature sources
# Sequence (Q96PD7 whole entry): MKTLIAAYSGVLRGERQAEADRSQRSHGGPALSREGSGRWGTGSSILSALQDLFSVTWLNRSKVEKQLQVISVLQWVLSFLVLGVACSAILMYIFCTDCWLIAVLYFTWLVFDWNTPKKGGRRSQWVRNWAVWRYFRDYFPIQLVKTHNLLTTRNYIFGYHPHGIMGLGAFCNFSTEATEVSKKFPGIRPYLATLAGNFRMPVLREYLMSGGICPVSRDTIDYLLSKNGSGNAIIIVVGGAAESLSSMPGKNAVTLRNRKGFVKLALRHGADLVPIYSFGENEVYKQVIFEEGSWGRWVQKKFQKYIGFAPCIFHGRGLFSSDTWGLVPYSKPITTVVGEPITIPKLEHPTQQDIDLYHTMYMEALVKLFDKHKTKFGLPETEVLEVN
// field semantics: pIC50 = negative decimal log of concentration (mol/L)

Field pIC50 (human DGAT2 (hDGAT2) (Homo sapiens, UniProt Q96PD7)), entry CC1(NC(=O)c2cnc3c(-c4cccc(OC(F)F)c4)nn(C4CC(O)C4)c3c2)CS(=O)(=O)C1 (centres unmarked) : 7.10

human DGAT2 (hDGAT2) (Homo sapiens, UniProt Q96PD7) data for O=C(NC1(CO)CCc2ccccc21)c1ccc2c(-c3ccccc3Cl)nn(-c3ccc(F)cc3)c2c1 (racemic) ; its pIC50: 6.45

human DGAT2 (hDGAT2) (Homo sapiens, UniProt Q96PD7) pIC50 of O=C(NC1(CC(F)(F)F)CCS(=O)(=O)CC1)c1nc2cc(Oc3ncc(Cl)cc3OCC(F)(F)F)ccn2n1 is 6.80

The reported pIC50 value, human DGAT2 (hDGAT2) (Homo sapiens, UniProt Q96PD7), for Cc1cc2nc(C(=O)NC3(C)CCS(=O)(=O)CC3)cn2cc1Oc1ncc(F)cc1OCC(C)(F)F reads 8.11

Test item CC(C)(O)C1(NC(=O)c2ccc3c(-c4ccccc4Cl)nn(-c4ccc(F)cc4)c3c2)CCOCC1 ; human DGAT2 (hDGAT2) (Homo sapiens, UniProt Q96PD7); reported pIC50 was 6.22

The molecule Cc1c(Oc2nccnc2OCC(F)F)cc(F)c2nc(C(=O)NC3(C)CCS(=O)(=O)CC3)nn12 on human DGAT2 (hDGAT2) (Homo sapiens, UniProt Q96PD7): pIC50 was 7.51

Bench note, human DGAT2 (hDGAT2) (Homo sapiens, UniProt Q96PD7): Cc1cncc(-c2ccc(CNC(=O)[C@@H]3C[C@H]3c3ccccc3)c3c2CCN(C(=O)NC(C)(C)C)C3)c1 (relative stereo) , pIC50 reads 7.08

Short answer on human DGAT2 (hDGAT2) (Homo sapiens, UniProt Q96PD7) for COc1ccc(Cl)c(COc2ccn3nc(C(=O)NC4(C)CCS(=O)(=O)CC4)cc3n2)n1 , pIC50: 7.09

Field pIC50 (human DGAT2 (hDGAT2) (Homo sapiens, UniProt Q96PD7)), entry Cc1c(C(=O)NC2(C)CCS(=O)(=O)C(C)(C)C2)nc2ccc(Oc3ncc(F)cc3OCC(F)F)cn12 (centres unmarked) : 8.77

The measured pIC50 that CCOc1ccc(F)c(-c2nn(C(C)C)c3cc(C(=O)NC4(C)CS(=O)(=O)C4)cnc23)c1 showed for human DGAT2 (hDGAT2) (Homo sapiens, UniProt Q96PD7) is 8.48

Value (pIC50, human DGAT2 (hDGAT2) (Homo sapiens, UniProt Q96PD7)) for record CCOC(=O)c1coc(-n2nc(-c3ccccc3Cl)c3ccc(C(=O)NC4(C)CCS(=O)(=O)C4)cc32)n1 (racemic) = 7.02

Cc1c(C(=O)N[C@]2(C)CCS(=O)(=O)C2)nc2ccc(Oc3ncc(F)cc3OCC(F)(F)F)cn12 on human DGAT2 (hDGAT2) (Homo sapiens, UniProt Q96PD7) gives pIC50 = 7.06

Note to self: pIC50 of Cc1noc(C)c1-c1cn(-c2ccc(F)cc2)c2cc(C(=O)NC3CCS(=O)(=O)C3)ccc12 (racemic) with human DGAT2 (hDGAT2) (Homo sapiens, UniProt Q96PD7) was 6.30

The value of pIC50 recorded for COC(=O)c1cccc(-c2ccc(CNC(=O)C3CC3c3ccccc3)c3c2CCN(C(=O)CC(F)(F)F)C3)c1 (centres unmarked) when tested on human DGAT2 (hDGAT2) (Homo sapiens, UniProt Q96PD7) reads 5.74
